Molecular target: T1, recombinant purified human Nectin-4-Fc fusion protein (human, UniProt Q96NY8 32-349)
T1 construct: Bought ('Aero Biosystems' as printed); not shown: Fc part of the bought fusion protein; captured by anti-human IgG Fc sensors
T1 sequence: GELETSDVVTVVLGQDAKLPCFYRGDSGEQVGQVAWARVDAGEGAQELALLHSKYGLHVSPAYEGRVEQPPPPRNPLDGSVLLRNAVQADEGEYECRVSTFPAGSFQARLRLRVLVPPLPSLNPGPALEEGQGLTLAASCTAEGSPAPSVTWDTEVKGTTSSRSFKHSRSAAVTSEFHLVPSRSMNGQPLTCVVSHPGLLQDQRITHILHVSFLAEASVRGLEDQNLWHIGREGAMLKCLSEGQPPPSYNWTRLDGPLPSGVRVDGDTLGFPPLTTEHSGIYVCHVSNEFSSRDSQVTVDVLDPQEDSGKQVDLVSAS
Assay: BLI (Octet), Nectin-4-Fc on anti-human Fc sensors, run 1
readout: koff (s⁻¹)
One number for each entry, in s⁻¹.

Sample records with koff:
INSERT INTO assay_data (binder, readout_units, measured_result) VALUES
  ('LV1184xVδ2 (bispecific antibody, Orientation N-term-anti-Nectin-4 VHH-linker-anti-Vδ2 VHH (5C8); no Fc; also called Nectin-4xVδ2 bispecific VHH) EVQLVESGGGLVQAGGSLRLSCAASGSISSINLMGWFRQAPAKQRELVTSISPGGSVRYADSVKGRFTISRDVAKNTVDLQMNSLKPEDTAVYYCAAESERTYYFDSWGQGTQVTVSSGGGGSEVQLVESGGGLVQAGGSLRLSCAASGRPFSNYAMGWFRQAPGKEREFVAAISWSGGSTSYADSVKGRFTISRDNAKNTVYLQMNSPKPEDTAIYYCAAQFSGADYGFGRLGIRGYEYDYWGQGTQVTVSS', 's⁻¹', '6.33e-05'),
  ('LV1185xVδ2 (bispecific antibody, Orientation N-term-anti-Nectin-4 VHH-linker-anti-Vδ2 VHH (5C8); no Fc; also called Nectin-4xVδ2 bispecific VHH) EVQLVESGGGLVQAGGSLRLSCAASRSTFSLNIMGWYRQAPGKQREYVATITTGGSTNYADSVRGRFTISRDNAEDTVYLQMNSLKPEDTAVYYCTAELVRRGPTTYWGRGTQVTVSSGGGGSEVQLVESGGGLVQAGGSLRLSCAASGRPFSNYAMGWFRQAPGKEREFVAAISWSGGSTSYADSVKGRFTISRDNAKNTVYLQMNSPKPEDTAIYYCAAQFSGADYGFGRLGIRGYEYDYWGQGTQVTVSS', 's⁻¹', 0.00127);

Now look at this entry.
Short answer for LV1181xVδ2 (bispecific antibody, Orientation N-term-anti-Nectin-4 VHH-linker-anti-Vδ2 VHH (5C8); no Fc; also called Nectin-4xVδ2 bispecific VHH) EVQLVESGGGLVQAGGSLRLSCAASGSISSINLMGWHRQAPGKQRELVATITRGGSTNYADSVKGRFTISRDNGKNTVYLQMNSLKPEDTAAYYCVDVEPSGMGWRDYWGQGTQVTVSSGGGGSEVQLVESGGGLVQAGGSLRLSCAASGRPFSNYAMGWFRQAPGKEREFVAAISWSGGSTSYADSVKGRFTISRDNAKNTVYLQMNSPKPEDTAIYYCAAQFSGADYGFGRLGIRGYEYDYWGQGTQVTVSS : koff was 0.000266
